- System: mice
- protocol: Anticonvulsant effect against minimal electroshock, mice
- Assay type: in vivo
- protocol.conditions: relative to chlordiazepoxide = 1.00, larger value = less effective
We label by threshold. Values of Relative potency, anticonvulsant effect, minimal electro shock strictly beneath 2 are Fulfilled. Values of 2 and up are Not fulfilled.

>  <compound>
C[C@@H]1N=C(c2ccccc2)c2cc(Cl)ccc2N(C)C1=O [26 (S)]

>  <assay.target>
mice

>  <class.label>
Fulfilled

$$$$
>  <compound>
CN1C(=O)C(OCC(O)CO)N=C(c2ccccc2)c2cc(Cl)ccc21 (racemic) [31 (Rac.)]

>  <assay.target>
mice

>  <class.label>
Not fulfilled

$$$$
>  <compound>
O=C1Nc2ccc(Cl)cc2C(c2ccccc2)=NC1Cc1ccccc1 (racemic) [21 (Rac.)]

>  <assay.target>
mice

>  <class.label>
Not fulfilled

$$$$
>  <compound>
CC(O)C1N=C(c2ccccc2)c2cc(Cl)ccc2NC1=O (racemic) [24 (Rac.)]

>  <assay.target>
mice

>  <class.label>
Not fulfilled

$$$$
>  <compound>
O=C1Nc2ccc(Cl)cc2C(c2ccccc2)=N[C@H]1Cc1c[nH]c2ccccc12 [23 (S)]

>  <assay.target>
mice

>  <class.label>
Fulfilled

$$$$
>  <compound>
O=C1Nc2ccc(Cl)cc2C(c2ccccc2)=NC1Cc1c[nH]c2ccccc12 (racemic) [23 (Rac.)]

>  <assay.target>
mice

>  <class.label>
Not fulfilled

$$$$
>  <compound>
O=C1Nc2ccc(Cl)cc2C(c2ccccc2)=N[C@H]1Cc1ccccc1 [21 (S)]

>  <assay.target>
mice

>  <class.label>
Not fulfilled

$$$$
>  <compound>
O=C1Nc2ccc(Cl)cc2C(c2ccccc2)=N[C@H]1Cc1ccc(O)cc1 [22 (S)]

>  <assay.target>
mice

>  <class.label>
Fulfilled

$$$$
>  <compound>
CC1N=C(c2ccccc2)c2cc(Cl)ccc2N(C)C1=O (racemic) [26 (Rac.)]

>  <assay.target>
mice

>  <class.label>
Not fulfilled

$$$$

* * *

Entries annotated with measured Relative potency, fighting test
- System: mice
- protocol: Fighting test, mice
- Format: in vivo
- protocol.conditions: relative to chlordiazepoxide = 1.00, larger value = less effective
readout: Relative potency, fighting test

>  <molecule>
C[C@@H]1N=C(c2ccccc2)c2cc(Cl)ccc2NC1=O [20 (S)]

>  <endpoint.result>
1.0

$$$$
>  <molecule>
CC(C)C1N=C(c2ccccc2)c2cc(Cl)ccc2NC1=O (racemic) [25 (Rac.)]

>  <endpoint.result>
9.30

$$$$
>  <molecule>
O=C1Nc2ccc(Cl)cc2C(c2ccccc2)=N[C@H]1Cc1ccc(O)cc1 [22 (S)]

>  <endpoint.result>
5.70

$$$$
>  <molecule>
CC1N=C(c2ccccc2)c2cc(Cl)ccc2NC1=O (racemic) [20 (Rac.)]

>  <endpoint.result>
10.4

$$$$
>  <molecule>
O=C1Nc2ccc(Cl)cc2C(c2ccccc2)=NC1Cc1ccccc1 (racemic) [21 (Rac.)]

>  <endpoint.result>
45.8

$$$$
>  <molecule>
C[C@@H](O)[C@@H]1N=C(c2ccccc2)c2cc(Cl)ccc2NC1=O [24 (S)]

>  <endpoint.result>
1.70

$$$$
>  <molecule>
O=C1Nc2ccc(Cl)cc2C(c2ccccc2)=N[C@H]1Cc1ccccc1 [21 (S)]

>  <endpoint.result>
4.50

$$$$
>  <molecule>
CC(C)[C@@H]1N=C(c2ccccc2)c2cc(Cl)ccc2NC1=O [25 (S)]

>  <endpoint.result>
1.40

$$$$
>  <molecule>
O=C1Nc2ccc(Cl)cc2C(c2ccccc2)=N[C@H]1Cc1c[nH]c2ccccc12 [23 (S)]

>  <endpoint.result>
7.10

$$$$
>  <molecule>
C[C@@H]1N=C(c2ccccc2)c2cc(Cl)ccc2N(C)C1=O [26 (S)]

>  <endpoint.result>
1.00

$$$$
>  <molecule>
O=C1Nc2ccc(Cl)cc2C(c2ccccc2)=NC1Cc1ccc(O)cc1 (racemic) [22 (Rac.)]

>  <endpoint.result>
56.30

$$$$
>  <molecule>
O=C1Nc2ccc(Cl)cc2C(c2ccccc2)=NC1Cc1c[nH]c2ccccc12 (racemic) [23 (Rac.)]

>  <endpoint.result>
80.30

$$$$
>  <molecule>
CN1CCN=C(c2ccccc2)c2cc(Cl)ccc21

>  <endpoint.result>
1.0

$$$$
>  <molecule>
CN1C(=O)C(OCC(O)CO)N=C(c2ccccc2)c2cc(Cl)ccc21 (racemic) [31 (Rac.)]

>  <endpoint.result>
8.74

$$$$
>  <molecule>
CC(O)C1N=C(c2ccccc2)c2cc(Cl)ccc2NC1=O (racemic) [24 (Rac.)]

>  <endpoint.result>
16.30

$$$$
>  <molecule>
CC1N=C(c2ccccc2)c2cc(Cl)ccc2N(C)C1=O (racemic) [26 (Rac.)]

>  <endpoint.result>
8.94

$$$$
>  <molecule>
CN1C(=O)C(OCC(O)CO)N=C(c2ccccc2)c2cc(Cl)ccc21 [31 (S)]

>  <endpoint.result>
1.0

$$$$

* * *

- Tested on: mice
- protocol: Hypnotic effect, mice
- Assay type: in vivo
- protocol.conditions: relative to chlordiazepoxide = 1.00, larger value = less effective
Use satisfied when the recorded Relative potency, hypnotic effect is no lower than 0.8; use not satisfied when it is lower.

>  <compound>
CN1C(=O)C(OCC(O)CO)N=C(c2ccccc2)c2cc(Cl)ccc21 (racemic) [31 (Rac.)]

>  <class.label>
satisfied

$$$$
>  <compound>
O=C1Nc2ccc(Cl)cc2C(c2ccccc2)=NC1Cc1c[nH]c2ccccc12 (racemic) [23 (Rac.)]

>  <class.label>
satisfied

$$$$
>  <compound>
CN1C(=O)C(OCC(O)CO)N=C(c2ccccc2)c2cc(Cl)ccc21 [31 (S)]

>  <class.label>
not satisfied

$$$$
>  <compound>
O=C1Nc2ccc(Cl)cc2C(c2ccccc2)=N[C@H]1Cc1ccc(O)cc1 [22 (S)]

>  <class.label>
satisfied

$$$$
>  <compound>
O=C1Nc2ccc(Cl)cc2C(c2ccccc2)=N[C@H]1Cc1ccccc1 [21 (S)]

>  <class.label>
satisfied

$$$$
>  <compound>
CC1N=C(c2ccccc2)c2cc(Cl)ccc2NC1=O (racemic) [20 (Rac.)]

>  <class.label>
satisfied

$$$$
>  <compound>
C[C@@H](O)[C@@H]1N=C(c2ccccc2)c2cc(Cl)ccc2NC1=O [24 (S)]

>  <class.label>
not satisfied

$$$$
>  <compound>
O=C1Nc2ccc(Cl)cc2C(c2ccccc2)=NC1Cc1ccccc1 (racemic) [21 (Rac.)]

>  <class.label>
satisfied

$$$$
>  <compound>
CN1CCN=C(c2ccccc2)c2cc(Cl)ccc21 [Medazepam]

>  <class.label>
not satisfied

$$$$
>  <compound>
O=C1Nc2ccc(Cl)cc2C(c2ccccc2)=NC1Cc1ccc(O)cc1 (racemic) [22 (Rac.)]

>  <class.label>
satisfied

$$$$
>  <compound>
CC(O)C1N=C(c2ccccc2)c2cc(Cl)ccc2NC1=O (racemic) [24 (Rac.)]

>  <class.label>
satisfied

$$$$
>  <compound>
CC1N=C(c2ccccc2)c2cc(Cl)ccc2N(C)C1=O (racemic) [26 (Rac.)]

>  <class.label>
satisfied

$$$$
>  <compound>
C[C@@H]1N=C(c2ccccc2)c2cc(Cl)ccc2NC1=O [20 (S)]

>  <class.label>
not satisfied

$$$$
>  <compound>
CC(C)C1N=C(c2ccccc2)c2cc(Cl)ccc2NC1=O (racemic) [25 (Rac.)]

>  <class.label>
satisfied

$$$$

* * *

Entries annotated with measured Relative potency, hypnotic effect
- Test system: mice
- protocol: Hypnotic effect, mice
- Type: in vivo
- protocol.conditions: relative to chlordiazepoxide = 1.00, larger value = less effective

>  <compound>
C[C@@H]1N=C(c2ccccc2)c2cc(Cl)ccc2N(C)C1=O [26 (S)]

>  <Relative potency, hypnotic effect>
0.80

$$$$
>  <compound>
CC(C)[C@@H]1N=C(c2ccccc2)c2cc(Cl)ccc2NC1=O [25 (S)]

>  <Relative potency, hypnotic effect>
0.80

$$$$
>  <compound>
O=C1Nc2ccc(Cl)cc2C(c2ccccc2)=N[C@H]1Cc1c[nH]c2ccccc12 [23 (S)]

>  <Relative potency, hypnotic effect>
0.80

$$$$
